test: gradient 5% acetonitrile 3 min, to 50% in 2 min, to 85% in 15 min, held 3 min, 100 µL/min; conditions: column: Zorbax Extend-C18 2.1 x 50 mm; eluents: water / acetonitrile, 0.1% formic acid
property: RP-LC retention time (s)

{"compound": "O=C(c1ccc(Br)o1)N1CCC(Cc2nnc(-c3ccccc3)o2)CC1", "measurement": 881}
{"compound": "O=C(c1cc(F)ccc1Cl)N1CCN(c2ncccc2-c2nnc(C3CC3)o2)CC1", "measurement": 834}
{"compound": "CCN1CCN(C(=O)CN2C(=O)C3CCCCN3c3ccc(S(=O)(=O)N(CC)CC)cc32)CC1 (configuration not stated)", "measurement": 670}
{"compound": "COc1ccc(NC(=O)Cn2nc3nc(Nc4ccc(F)cc4)ccn3c2=O)cc1Cl", "measurement": 718}
{"compound": "O=C(NCc1ccccc1F)C1CCCN(c2cnc3nccnc3c2)C1 (configuration not stated)", "measurement": 680}
{"compound": "CC(C)CNC(=O)c1ccc2c(ccn2C)c1", "measurement": 784}
{"compound": "O=C1NCCOCCN(C(=O)c2nccc3ccccc23)[C@H]2CCC[C@@H]12", "measurement": 674}
{"compound": "O=C(O)C1CCN(S(=O)(=O)c2ccc(Cl)c(-c3nnc(-c4ccccc4)o3)c2)CC1", "measurement": 887}
{"compound": "Cc1cc(C)n(CC(=O)N(C)CC2(C)CCOCC2)n1", "measurement": 612}
{"compound": "Cc1nc(-c2noc(-c3cccc(F)c3)n2)cn1CC(=O)Nc1ccccc1", "measurement": 856}
{"compound": "COC(=O)CSCC(=O)Nc1cc(C)ccc1C", "measurement": 729}
{"compound": "Cc1cc(=O)n(CC(=O)Nc2ccc(Cl)cc2)c(N2CCCCC2)n1", "measurement": 708}
{"compound": "CN1c2ccccc2C(=O)NC12CCN(C(=O)c1ccccc1)CC2", "measurement": 700}
{"compound": "Cc1nc([C@@H]2CN(C(=O)c3sc(C)nc3C)C[C@H]2C(N)=O)n[nH]1", "measurement": 550}
{"compound": "O=C(NC1CCCN(c2cc(N3CCCC3)ncn2)C1)c1ccccn1 (configuration not stated)", "measurement": 606}
{"compound": "O=C([C@@H]1C[C@H](F)CN1C(=O)c1ccccc1)N1CCOCC1", "measurement": 590}
{"compound": "COc1ccc(NC(=O)N2CCC3(CC2)NC(=O)c2ccccc2N3C)c(OC)c1", "measurement": 649}

----------
experiment: gradient 5% acetonitrile 3 min, to 50% in 2 min, to 85% in 15 min, held 3 min, 100 µL/min; conditions: column: Zorbax Extend-C18 2.1 x 50 mm; eluents: water / acetonitrile, 0.1% formic acid
compounds and their reported RP-LC retention time

{"compound": "O=C(Nc1ccc2c(c1)C(=O)N1CCCCC1CCO2)c1ccc2nsnc2c1 (stereo not drawn)", "RP-LC retention time [s]": 800}
{"compound": "CCNc1ccccc1C(=O)O", "RP-LC retention time [s]": 782}
{"compound": "O=C(Nc1ccccc1)N[C@H]1C[C@H](C(=O)O)Nc2cc(Cl)cc(Cl)c21", "RP-LC retention time [s]": 799}

----------
molecules and their reported RP-LC retention time
test: gradient 5% acetonitrile 3 min, to 50% in 2 min, to 85% in 15 min, held 3 min, 100 µL/min; conditions: column: Zorbax Extend-C18 2.1 x 50 mm; eluents: water / acetonitrile, 0.1% formic acid

{"molecule": "CCCCN(C)C(=O)c1cc2sc(C)c(CN3CCCC3)c2[nH]1", "RP-LC retention time [s]": 671}
{"molecule": "CCOC(=O)c1nc(N2CCN(c3ccc(C)cc3C)CC2)c2ccccc2n1", "RP-LC retention time [s]": 1110}
{"molecule": "O=C(c1ccc(-c2ccsc2)nc1)N1CCCCCC1", "RP-LC retention time [s]": 841}
{"molecule": "O=C(NC1CCCCCC1)c1nnc(-c2ccc(S(=O)(=O)N3CCCC3)cc2)o1", "RP-LC retention time [s]": 1010}
{"molecule": "O=C(NCCn1nc(-c2ccco2)ccc1=O)C1CN(c2nc3c(F)cccc3s2)C1", "RP-LC retention time [s]": 680}
{"molecule": "O=C(Cn1nc2c3ccccc3ncn2c1=O)NCCc1ccc(Cl)cc1", "RP-LC retention time [s]": 707}
{"molecule": "CCNC(=O)CCc1nc2ccccc2n(CC(=O)NCc2cccc(OC)c2OC)c1=O", "RP-LC retention time [s]": 1110}
{"molecule": "COCCNC(=O)c1cc(C)nc2ccc(Br)cc12", "RP-LC retention time [s]": 636}
{"molecule": "O=C(NC1CCCC1)C1CCCN(c2ccc(=O)n(-c3cccc(Cl)c3)n2)C1 (configuration not stated)", "RP-LC retention time [s]": 845}
{"molecule": "CCCCOc1ccc(NC(=O)c2cc(=O)c3cc(Br)ccc3o2)c2cccnc12", "RP-LC retention time [s]": 811}
{"molecule": "O=C(NC1CCN(c2cc(-c3ccc(F)cc3)[nH]n2)C1)c1ccc2[nH]ccc2c1 (configuration not stated)", "RP-LC retention time [s]": 689}
{"molecule": "COc1ccc(-c2nc(N3CCCC3)c3ccccc3n2)cc1", "RP-LC retention time [s]": 742}

----------
molecules and their reported RP-LC retention time
test: gradient 5% acetonitrile 3 min, to 50% in 2 min, to 85% in 15 min, held 3 min, 100 µL/min; conditions: column: Zorbax Extend-C18 2.1 x 50 mm; eluents: water / acetonitrile, 0.1% formic acid

{"molecule": "COc1cc(NC(=O)c2noc3c2CCCC3)cc(OC)c1OC", "units.text": "s", "RP-LC retention time": 876}
{"molecule": "COc1ccc(C(=O)Nc2nnc(SCc3nnc(-c4ccccc4C)o3)s2)cc1OC", "units.text": "s", "RP-LC retention time": 898}
{"molecule": "O=C(NCc1cccnc1-c1ccc(F)cc1)c1cc(F)cc(F)c1", "units.text": "s", "RP-LC retention time": 710}
{"molecule": "Cc1ccc(NC(=O)c2c(C)sc3ncnc(N4CCCC(C)C4)c23)cc1F (centres undefined)", "units.text": "s", "RP-LC retention time": 1290}

----------
compounds and their reported RP-LC retention time
assay: gradient 5% acetonitrile 3 min, to 50% in 2 min, to 85% in 15 min, held 3 min, 100 µL/min; settings: column: Zorbax Extend-C18 2.1 x 50 mm; eluents: water / acetonitrile, 0.1% formic acid

{"structure.string": "O=[N+]([O-])c1cnc(Sc2ccncn2)s1", "RP-LC retention time / s": 843}
{"structure.string": "COc1ccc(NC(=O)NC2CCN(C(=O)N3C[C@H]4C[C@H](C3)[C@H]3CCCC(=O)N3C4)CC2)cc1", "RP-LC retention time / s": 652}
{"structure.string": "Cc1nnc(CNC(=O)c2cc(-c3ccc(F)cc3)c[nH]2)o1", "RP-LC retention time / s": 649}
{"structure.string": "c1cc(-c2noc(-c3ccc4c(c3)OCO4)n2)cc(N2CCCC2)n1", "RP-LC retention time / s": 690}

----------
experiment: gradient 5% acetonitrile 3 min, to 50% in 2 min, to 85% in 15 min, held 3 min, 100 µL/min; details: column: Zorbax Extend-C18 2.1 x 50 mm; eluents: water / acetonitrile, 0.1% formic acid
molecules and their reported RP-LC retention time

{"molecule": "CC(C)CC(=O)Nc1cc2c(cc1S(=O)(=O)c1ccccc1)n(C)c(=O)n2C", "RP-LC retention time / s": 786}
{"molecule": "Cc1ccccc1Nc1c(-c2ccccc2F)nc2ccccn12", "RP-LC retention time / s": 707}
{"molecule": "COc1ccc2c(c1)C1(CCN(C(=O)Nc3cccc(C)c3)C1)C(=O)N2C (stereo not drawn)", "RP-LC retention time / s": 809}
{"molecule": "CCCCN(C)c1ncc(C(=O)Nc2ccccc2)c(N)n1", "RP-LC retention time / s": 702}
{"molecule": "COc1ccc(C(=O)N2CCN(c3ccc(-c4nc(C)cs4)cn3)CC2)cc1F", "RP-LC retention time / s": 819}
{"molecule": "CC(C)Sc1cc(NCCCO)c([N+](=O)[O-])c2nonc12", "RP-LC retention time / s": 723}
{"molecule": "O=C(Nc1ccccc1F)C1CCCN(S(=O)(=O)Cc2ccccc2)C1 (stereo not drawn)", "RP-LC retention time / s": 950}
{"molecule": "O=C(Nc1ccc(Br)cc1)N1CCCC1c1nc(-c2ccc(F)cc2F)no1 (stereo not drawn)", "RP-LC retention time / s": 1050}

----------
assay: gradient 5% acetonitrile 3 min, to 50% in 2 min, to 85% in 15 min, held 3 min, 100 µL/min; settings: column: Zorbax Extend-C18 2.1 x 50 mm; eluents: water / acetonitrile, 0.1% formic acid
property: RP-LC retention time

{"compound": "CC1CCN(c2nn(CC(=O)Nc3ccc(F)cc3)c(=O)c3ccccc23)CC1", "measurement": "1120 s"}
{"compound": "CCCCn1c(CN2CCOCC2)nc2cc(NC(=O)C(C)C)ccc21", "measurement": "648 s"}
{"compound": "CCCS(=O)(=O)N1CCO[C@@H](COC)[C@@H]1c1ccccc1", "measurement": "850 s"}
{"compound": "Cc1cccc(NC(=O)Cn2nc(C(=O)N3CCOCC3)c3ccccc32)c1C", "measurement": "819 s"}
{"compound": "CC(=O)N1CCC2(CC1)Oc1ccccc1C1CC(c3ccc4c(c3)OCO4)=NN12 (stereo not drawn)", "measurement": "783 s"}
{"compound": "C=CCn1c(=O)c2ccccc2n(Cc2nc(-c3ccccc3OCC)no2)c1=O", "measurement": "1000 s"}
{"compound": "COc1ccc(-c2ncc(NC(=O)C3CCC3)cn2)cc1", "measurement": "848 s"}
{"compound": "Cc1ccc(CNC(=O)C(C)Oc2cc(-c3ccccc3)c3c(C)nn(C)c3n2)o1 (stereo not drawn)", "measurement": "769 s"}
{"compound": "CC1Oc2ccc(-c3csc(NC(=O)c4ccc(Br)cc4)n3)cc2NC1=O (stereo not drawn)", "measurement": "990 s"}
{"compound": "Cc1ccc(CNC(=O)c2ccccc2CN2C(=O)C3CCCN3C(=O)c3ccccc32)o1 (stereo not drawn)", "measurement": "741 s"}
{"compound": "O=C(C1=NN(Cc2ccc(F)cc2)c2ccccc2S1(=O)=O)N1CCCCC1", "measurement": "885 s"}
{"compound": "Clc1ccccc1-c1noc(Cc2nc(-c3ccccc3)cs2)n1", "measurement": "1180 s"}
{"compound": "CCOC(=O)c1ccc(OC(=O)c2cn(C)c(=O)c3ccccc23)cc1", "measurement": "953 s"}

Source listed as the METLIN SMRT retention time set (Domingo-Almenara et al. 2019).
